The values you see were collected from ChEMBL document CHEMBL1201862.

Test system: PC-3
Assay: NCI tumour cell line growth inhibition, 48 h
The source made the active and inactive calls. Cut-off read from the data, not from the text of the source: active = GI50 up to about 1.1 µM and inactive = higher.
The reply should name one outcome from Yes (active), No (inactive)

Reference set (4 entries):
chemicalString: c1ccc2cc(-c3cc(-c4cc(-c5ccc6ccccc6c5)on4)no3)ccc2c1
labelValue: No

chemicalString: COc1ccc2[nH]c3c4c(ccc3c2c1)C(=O)C=CC4=O
labelValue: No

chemicalString: O=[N+]([O-])/C=C/COCc1cc2c(cc1Br)OCO2
labelValue: No

chemicalString: CCCCSCc1nc2nc(Cl)c(Cl)nc2[nH]1
labelValue: No

For [N-]=[N+]=Nc1c(N2CCOCC2)c(Cl)nc2ccccc12 , what call appears in the results of this test?
No

For O=[N+]([O-])/C=C/c1cc2ccc3ccccc3c2[nH]1 , what call appears in the results of this test?
No

For COc1cc2c[n+](C)c3c4cc(OC)c(OC)cc4c(OC)cc3c2cc1OC , what call appears in the results of this test?
No

For Cc1nc2c(o1)C(=O)c1ccccc1/C2=N\c1ccccc1 , what call appears in the results of this test?
No

For CC(C)[C@H](O)C(=O)N[C@H]1Cc2ccc3c(c2)[C@]24C5=C(N=C(O5)[C@H](C(C)C)NC1=O)c1nc(Cl)c(o1)-c1c(Cl)[nH]c5cccc(c15)-c1cccc2c1N[C@H]4O3 , what call appears in the results of this test?
Yes

For CN(C)CCCc1cccnc1 , what call appears in the results of this test?
No

* * *

Tested on: MDA-MB-435
Test: NCI tumour cell line growth inhibition, 48 h
The source made the active and inactive calls. No stated cut-off is given here; in the data, active = GI50 up to about 1.1 µM and inactive = higher.
So I've got a bunch of molecules here, and I need their GI50 values.

Sample records with GI50:
molecule: Cc1cn(C2CC(O)C(COC(=O)NCCC(F)(F)C(F)(F)C(F)(F)C(F)(F)F)O2)c(=O)[nH]c1=O (stereo not given)
experimentalSystem: MDA-MB-435
GI50: 75.2 µM (inactive)
--
molecule: O=C(O)CN1CCNCCN(CC(=O)O)CC1
experimentalSystem: MDA-MB-435
GI50: 11.6 µM (inactive)
--
molecule: CC(NC(=O)c1ccc(NP(=O)(OCc2ccc([N+](=O)[O-])o2)N(C)CCCCCl)cc1)c1ccc(OCC2CCCCC2)c(C(N)=O)c1 (stereo not given)
experimentalSystem: MDA-MB-435
GI50: 12 µM (inactive)
--
molecule: COc1ccc(C(=O)N2CCc3c([nH]c4ccccc34)C2C(=O)O)o1 (stereo not given)
experimentalSystem: MDA-MB-435
GI50: > 10 µM (inactive)

Okay, next one:
Form field GI50 for item CC1CN(C)c2ccccc2N=C1NN (stereo not given) on MDA-MB-435: > 100 µM (inactive)

* * *

System: XF498
Test: NCI tumour cell line growth inhibition, 48 h
The source made the active and inactive calls. Cut-off read from the data, not from the text of the source: active = GI50 up to about 1.1 µM and inactive = higher.
The reply should name one outcome from active, inactive

Reference set (3 entries):
molecule: O=C1NC(=S)NC(=O)C1=Cc1ccc[nH]1
labelValue: inactive
--
molecule: O=C1c2c(O)cccc2C(C(=O)CCCCC(=O)C2c3cccc(O)c3C(=O)c3c(O)cccc32)c2cccc(O)c21
labelValue: active
--
molecule: O=C1C2=C(N[C@@H](c3ccccc3)[C@H](c3ccccc3)N2)C(=O)c2ccccc21
labelValue: inactive

For Cc1c(N)nc(C(CC(N)=O)NCC(N)C(N)=O)nc1C(=O)NC(C(=O)NC(C)C(O)C(C)C(=O)NC(C(=O)NCCc1nc(-c2nc(C(=O)NCCCNCCCCN)cs2)cs1)C(C)O)C(OC1OC(CO)C(O)C(O)C1OC1OC(CO)C(O)C(OC(N)=O)C1O)c1c[nH]cn1 (stereo unspecified) , what call appears in the results of this test?
active

For CN/C(=N/C#N)NCc1ccccc1 , what call appears in the results of this test?
inactive

For N=C(N)NS(=O)(=O)c1ccc(NC(=O)c2cccc3cc4ccccc4nc23)cc1 , what call appears in the results of this test?
inactive

For O=[N+]([O-])c1ccc(C2=Nn3cnnc3SC2)o1 , what call appears in the results of this test?
inactive
